Tested on: ICS
assay_procedure: qHTS profiling for inhibitors of Plasmodium falciparum proliferation (AID 504749); further: nearly all actives have a fitted effect of over 60% in size
applied_conditions: P. falciparum in erythrocytes, SYBR Green DNA, 72 h; series mostly up to 28.7 µM
Experimental: NIH National Institute of Allergy and Infectious Diseases [NIAID] NIH Chemical Genomics Center [NCGC] […] Because mature erythrocytes lack DNA, only Plasmodium-derived DNA is detected. NCGC Assay Protocol Summary: The SYBR Green viability assay was adapted from a method described previously (Plouffe et al., 2008). […] The following morning, fluorescence intensity at 485(14) nm excitation and 535(25) nm emission wavelengths was measured on an EnVision (Perkin Elmer) plate reader. […]
Results filed as inconclusive are left out. Activity calls are given as the source filed them. The call rests on the fitted dose curve; in most records, active means well fitted inhibition curve with a large enough effect; inconclusive means small, poorly fitted or top-dose-only effect; inactive means flat fitted curve, though single readings scatter.
The reply should be one of these categories: active, inactive

Solved cases below.
CC(C)(O)C1C2OC(=O)C1[C@]1(O)C[C@H]3O[C@]34C(=O)O[C@H]2[C@]14C (stereo not given in full) (tested in a mixture with another compound) :: inactive
CC(=O)O[C@H]1CC[C@@]2(C)C(=CC[C@@H]3[C@H]2CC[C@]2(C)C(=O)CC[C@H]32)C1 :: inactive
C[C@H](N)[C@@H](O)c1ccccc1 :: inactive
C[C@]12CC[C@H]3[C@@H](CCC4=CC(=O)CC[C@@]43C)[C@@H]1CC[C@@H]2O :: inactive
CNC[C@H](O)c1ccc(O)cc1 :: inactive

Which outcome was entered for the molecule C[N+]1(C)[C@@H]2CC[C@H]1CC(OC(=O)[C@@H](CO)c1ccccc1)C2 (stereo not given in full) in this test?
inactive

Which outcome was entered for the molecule C#CCN(C)[C@@H](C)Cc1ccccc1 in this test?
inactive

Which outcome was entered for the molecule O=c1ccc2cc(O[C@H]3O[C@@H](CO)[C@@H](O)[C@@H](O)[C@@H]3O)c(O)cc2o1 in this test?
inactive

Which outcome was entered for the molecule CNC(C)[C@@H](O)c1ccccc1 (stereo not given in full) in this test?
inactive

Which outcome was entered for the molecule COc1cc(N)c(Cl)cc1C(=O)N[C@@H]1CN2CCC1CC2 in this test?
inactive

Which outcome was entered for the molecule CN(C)C(=O)Oc1cc(OC(=O)N(C)C)cc([C@@H](O)CNC(C)(C)C)c1 in this test?
inactive

Which outcome was entered for the molecule Oc1ccc2c3c1O[C@H]1[C@@H](O)CC[C@@]4(O)C(C2)N(CC2CCC2)CCC314 (stereo not given in full) in this test?
inactive

Which outcome was entered for the molecule COc1cc2c(cc1OC)[C@@]13CCN4CC5=CCOC6CC(=O)N2C1[C@H]6[C@@H]5C[C@@H]43 (stereo not given in full) in this test?
inactive

Which outcome was entered for the molecule C[C@@]12CCC(=O)C=C1C=C[C@H]1[C@H]3CC[C@](O)(CCC(=O)O)[C@]3(C)CC[C@@H]12 in this test?
active
